Test system: Leishmania donovani
Test: Antileishmanial activity against Leishmania donovani MHOM-ET-67/L82 after 72 hrs by resazurin-based spectrophotometric assay
Format: functional, organism-based
Conditions: MHOM-ET-67/L82, 72 h
Note: every record was labeled by where its IC50 sits among bottom bin: < 3 µM; middle bin: ≥ 3 µM and < 7 µM; top bin: ≥ 7 µM

Assign a category based on measured IC50 for c1ccc2[nH]c(-c3ccc(OCCCOc4ccc(-c5nc6ccccc6[nH]5)cc4)cc3)nc2c1 and give only the class name.
bottom bin

Assign a category based on measured IC50 for c1cc(OCCCCOc2cccc(-c3nc4ccccc4[nH]3)c2)cc(-c2nc3ccccc3[nH]2)c1 and give only the class name.
top bin

Assign a category based on measured IC50 for c1ccc2[nH]c(-c3ccc(OCCCCCCCCOc4ccc(-c5nc6ccccc6[nH]5)cc4)cc3)nc2c1 and give only the class name.
top bin

Assign a category based on measured IC50 for c1ccc2[nH]c(-c3ccc(OCCCCCCCCCOc4ccc(-c5nc6ccccc6[nH]5)cc4)cc3)nc2c1 and give only the class name.
middle bin

Assign a category based on measured IC50 for c1ccc2[nH]c(-c3ccc(OCCCCCOc4ccc(-c5nc6ccccc6[nH]5)cc4)cc3)nc2c1 and give only the class name.
bottom bin

Assign a category based on measured IC50 for c1cc(OCCCCCCCCOc2cccc(-c3nc4ccccc4[nH]3)c2)cc(-c2nc3ccccc3[nH]2)c1 and give only the class name.
middle bin

Assign a category based on measured IC50 for c1ccc(COc2ccc(-c3nc4ccccc4[nH]3)cc2)c(COc2ccc(-c3nc4ccccc4[nH]3)cc2)c1 and give only the class name.
bottom bin

Assign a category based on measured IC50 for c1cc(OCOc2cccc(-c3nc4ccccc4[nH]3)c2)cc(-c2nc3ccccc3[nH]2)c1 and give only the class name.
middle bin

Assign a category based on measured IC50 for c1cc(OCCCCCCOc2cccc(-c3nc4ccccc4[nH]3)c2)cc(-c2nc3ccccc3[nH]2)c1 and give only the class name.
bottom bin

Assign a category based on measured IC50 for c1cc(COc2ccc(-c3nc4ccccc4[nH]3)cc2)cc(COc2ccc(-c3nc4ccccc4[nH]3)cc2)c1 and give only the class name.
bottom bin

Assign a category based on measured IC50 for c1ccc2[nH]c(-c3ccc(OCCCCCCOc4ccc(-c5nc6ccccc6[nH]5)cc4)cc3)nc2c1 and give only the class name.
middle bin

Assign a category based on measured IC50 for c1cc(OCc2ccc(COc3cccc(-c4nc5ccccc5[nH]4)c3)cc2)cc(-c2nc3ccccc3[nH]2)c1 and give only the class name.
top bin

Assign a category based on measured IC50 for c1cc(COc2cccc(-c3nc4ccccc4[nH]3)c2)cc(COc2cccc(-c3nc4ccccc4[nH]3)c2)c1 and give only the class name.
middle bin

Assign a category based on measured IC50 for c1cc(OCCCCCCCCCCOc2cccc(-c3nc4ccccc4[nH]3)c2)cc(-c2nc3ccccc3[nH]2)c1 and give only the class name.
top bin

Assign a category based on measured IC50 for c1ccc2[nH]c(-c3ccc(OCc4ccc(COc5ccc(-c6nc7ccccc7[nH]6)cc5)cc4)cc3)nc2c1 and give only the class name.
bottom bin

Assign a category based on measured IC50 for c1ccc2[nH]c(-c3ccc(OCOc4ccc(-c5nc6ccccc6[nH]5)cc4)cc3)nc2c1 and give only the class name.
top bin

Assign a category based on measured IC50 for c1cc(OCCCOc2cccc(-c3nc4ccccc4[nH]3)c2)cc(-c2nc3ccccc3[nH]2)c1 and give only the class name.
middle bin

Assign a category based on measured IC50 for c1cc(OCCCCCOc2cccc(-c3nc4ccccc4[nH]3)c2)cc(-c2nc3ccccc3[nH]2)c1 and give only the class name.
bottom bin

Assign a category based on measured IC50 for c1cc(OCCCCCCCOc2cccc(-c3nc4ccccc4[nH]3)c2)cc(-c2nc3ccccc3[nH]2)c1 and give only the class name.
bottom bin

Assign a category based on measured IC50 for c1cc(OCCOc2cccc(-c3nc4ccccc4[nH]3)c2)cc(-c2nc3ccccc3[nH]2)c1 and give only the class name.
top bin

Assign a category based on measured IC50 for c1ccc2[nH]c(-c3ccc(OCCCCOc4ccc(-c5nc6ccccc6[nH]5)cc4)cc3)nc2c1 and give only the class name.
middle bin

Assign a category based on measured IC50 for c1cc(OCCCCCCCCCOc2cccc(-c3nc4ccccc4[nH]3)c2)cc(-c2nc3ccccc3[nH]2)c1 and give only the class name.
middle bin

Assign a category based on measured IC50 for c1ccc2[nH]c(-c3ccc(OCCCCCCCCCCOc4ccc(-c5nc6ccccc6[nH]5)cc4)cc3)nc2c1 and give only the class name.
top bin

Assign a category based on measured IC50 for c1ccc2[nH]c(-c3ccc(OCCOc4ccc(-c5nc6ccccc6[nH]5)cc4)cc3)nc2c1 and give only the class name.
top bin

Assign a category based on measured IC50 for c1ccc2[nH]c(-c3ccc(OCCCCCCCOc4ccc(-c5nc6ccccc6[nH]5)cc4)cc3)nc2c1 and give only the class name.
bottom bin
